# ASSAY_SYSTEM: murine CDH6 protein (mCDH6 ECD-his) (mouse) (UniProt P97326)
# Sequence (P97326 19-615 limits assumed, form in doubt): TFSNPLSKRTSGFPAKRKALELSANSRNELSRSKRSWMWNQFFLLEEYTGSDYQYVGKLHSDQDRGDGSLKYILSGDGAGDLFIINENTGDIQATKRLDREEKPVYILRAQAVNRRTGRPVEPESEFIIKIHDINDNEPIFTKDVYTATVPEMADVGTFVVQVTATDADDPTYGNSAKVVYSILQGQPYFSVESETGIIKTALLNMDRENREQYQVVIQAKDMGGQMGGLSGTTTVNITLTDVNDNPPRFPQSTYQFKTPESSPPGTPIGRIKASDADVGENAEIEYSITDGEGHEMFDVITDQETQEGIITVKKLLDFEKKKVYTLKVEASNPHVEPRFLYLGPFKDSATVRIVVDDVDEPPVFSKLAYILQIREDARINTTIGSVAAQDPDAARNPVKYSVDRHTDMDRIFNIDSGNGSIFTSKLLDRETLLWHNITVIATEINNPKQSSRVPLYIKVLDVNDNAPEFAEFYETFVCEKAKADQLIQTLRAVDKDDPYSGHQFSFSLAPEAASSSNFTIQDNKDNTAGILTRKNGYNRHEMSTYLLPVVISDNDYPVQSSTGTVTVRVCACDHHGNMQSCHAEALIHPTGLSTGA
# TEST_PROTOCOL: ELISA, antigen coated
VALUE_TYPE: pEC50
pEC50 field: float, defined as -log10 of concentration (mol/L).

Entry CHI-CDH6-7 (antibody, human IgG1, kappa, V domains shown) VH: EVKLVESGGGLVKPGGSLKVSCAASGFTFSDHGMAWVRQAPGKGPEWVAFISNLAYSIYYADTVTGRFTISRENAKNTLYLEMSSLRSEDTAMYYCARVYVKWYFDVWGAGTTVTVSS VL: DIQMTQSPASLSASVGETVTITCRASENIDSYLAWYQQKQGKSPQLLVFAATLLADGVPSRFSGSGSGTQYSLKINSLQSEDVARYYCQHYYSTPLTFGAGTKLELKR ; pEC50 = 10.24

Entry CHI-CDH6-2 (antibody, human IgG1, kappa, V domains shown) VH: EVQLQQSGPELVKPGASVRISCKASGYTFTDYYMNWVKQSHGKSLEWIGDIDPNNANTTYNQKFKGKATLTVDKSSSTAYMELRSLTSEDSAVYSCASFGYDVEWFGYWGQGTLVTVSA VL: QIVLTQSPALMSASPGEKVTMTCSASSSVSYMYWYQQKPRSSPKPWIYLTSNLASGVPARFSGSGSGTSYSLTISSMEAEDAATYYCQQWSSNPFTFGSGTKLEIKR ; pEC50 = 10.64
